Every entry's value here was drawn from PubChem BioAssay AID588413.

Assay: blockers of Gli reporter signaling – luciferase luminescence, Sufu-KO-LIGHT cells, uHTS, primary screen (AID 588413);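 further: 0% = DMSO-treated cells and 100% = wells with medium but no cells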
Conditions: Sufu-KO-LIGHT fibroblasts, at 5 µM, hits give high values
The campaign covered roughly 340,000 compounds. About 2,500 (0.74%) were called active. The sample as a whole holds a higher share of actives than the screen did.
value-type: inhibition (%)
Please reply with the bare figure in % and do not write the unit itself.

Here are 4 molecules together with their reported answers.
CC[C@H]1CC2CN3CCc4c([nH]c5ccccc45)C(C(=O)OC)(C2)C13 (stereo not given in full) :: 8.02
CNC(=O)Nc1ccc(C(O)(C(=O)OC)C(F)(F)F)cc1 (stereo not given) :: 11.8
N[C@@H](Cc1c[nH]c2ccccc12)c1nnc(SCc2c(F)cccc2Cl)o1 :: -1.34
CCOP(=O)(OCC)C(NC(=O)c1ccc(OC)cc1)C(Cl)(Cl)Cl (stereo not given) :: -2.69

Kindly consider the entry below.
// inhibition value for "Cc1ccccc1NC(=O)COC(=O)c1cc(C)n(C2CC2)c1C" : 0.92
